Each recorded value in this set is attributed to paper PMC10701690.

Target: T1, NCYM (Homo sapiens, UniProt P40205 1-109)
T1 sequence: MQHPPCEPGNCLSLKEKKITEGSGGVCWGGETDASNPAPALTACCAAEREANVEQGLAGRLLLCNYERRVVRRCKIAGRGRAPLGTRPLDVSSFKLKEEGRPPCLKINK
Assay: BLI; BLI: 25 C, NCYM 25-400 nM, buffer not stated (selection buffer: 40 mM HEPES pH 7.5, 125 mM NaCl, 5 mM KCl, 1 mM MgCl2, 0.01% Tween 20); AFM: 20 mM Tris-HCl pH 7.4, 10 mM MgCl2, 1 mM EDTA, 25 C, 2 h, NCYM 100 nM, aptamer frame 10 nM; SAXS: 293 K
Conditions: protein: recombinant; tags: N-terminal GST tag cleaved, 8 vector residues left (117 aa; stated for SAXS); label: 5'-biotin (BLI)
ATTRIBUTE_MEASURED: Kd (nM)
# value in nM; strip the unit string

Query: Report Kd for aptamer No. 3 (ssDNA) DNA: GGAATGTGGTCCCTCGCAATAAATCGGGCGTTGTGGAGGGGGCGGTGGGTGGGGGGAAATGAGCCCTTTGACCCTGTAC please.
Result: 53.9
